- study target: T1, PUF4 RNA-binding domain (Saccharomyces cerevisiae, UniProt P25339 537-888)
- T1 sequence: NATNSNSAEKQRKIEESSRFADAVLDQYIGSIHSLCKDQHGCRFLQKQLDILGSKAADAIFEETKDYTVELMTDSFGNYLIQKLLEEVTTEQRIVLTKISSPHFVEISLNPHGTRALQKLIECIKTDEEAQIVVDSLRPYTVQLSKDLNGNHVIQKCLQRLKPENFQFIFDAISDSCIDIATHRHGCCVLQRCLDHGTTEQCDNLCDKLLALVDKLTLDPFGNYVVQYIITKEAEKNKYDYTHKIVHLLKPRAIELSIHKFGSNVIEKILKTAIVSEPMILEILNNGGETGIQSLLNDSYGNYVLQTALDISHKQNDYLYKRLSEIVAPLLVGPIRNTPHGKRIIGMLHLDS
- test summary: Mg; RNA-MaP; 20 mM Na-HEPES pH 7.4, 30 mM KOAc, 0.75 mM MgCl2, 0.1% Tween-20, 5% glycerol, 0.1 mg/mL BSA, 2 mM DTT; 25 C; 0.0125-409.6 nM protein
- condition parameters: tags: N-His6-TEV cleaved; C-SNAP kept, Cy3B-labelled; label: tethered on chip by stalled RNA polymerase
pKd: −log10 of the molar value.
measurement type: pKd

INSERT INTO assay_data (binder, measurement_type, obs_value) VALUES
  ('Id_ii_S2_P5E.4_K5.3_C5.2_[C-2T]_[T-1A]_H5.3_A5.1_F5.1_T5.2_[T11C]_[A12G] (ssRNA) RNA: UUUGAUUAAUAUGAUAUCGUUCUUUCUUAACACUUAUUACGUUCUUUCUCGAUAUCAUAUUAAUCUUU', 'pKd', '< 5.64'),
  ('UCUCUUUUUAUAAUUAUCUCUU (ssRNA) [Ib_S1_P5E.1_K5.1_C5.1_H5.1_[G2T]_A5.1_[T6A]_F5.1_T5.1]', 'pKd', '< 5.64'),
  ('ACAAACCGACACUAUUAUGACAAAC (ssRNA) [Id_ii_S3_P4E.4_K4.3_C4.2_[T-1G]_H4.3_A4.1_F4.1_T4.2_[G10T]_[T11G]]', 'pKd', '< 5.64');

Values from paper PMC9352680
